Provide the recorded CC50 at 72 h for the entries that follow.
# experiment.description: Cytotoxicity against African green monkey Vero cells measured after 3 days by resazurin dye based fluorescence assay
# Assay type: cell-based
# details: chlorocebus sabaeus

Past entries and their recorded results:
structure.smiles.string | CC50 at 72 h
O=C(CCCc1cn(Cc2cn(Cc3ccccc3)nn2)c2ccccc12)NC12CC3CC(CC(C3)C1)C2 | > 250 µM
O=C(CCCc1cn(Cc2ccc(Br)cc2)c2ccccc12)NC12CC3CC(CC(C3)C1)C2 | > 250 µM
Cc1ccc(S(=O)(=O)n2cc(CCCC(=O)NC34CC5CC(CC(C5)C3)C4)c3ccccc32)cc1 | > 250 µM
O=C(CCCc1cn(S(=O)(=O)c2cccc3ccccc23)c2ccccc12)NC1CCCCCC1 | > 250 µM
O=C(CCCc1cn(S(=O)(=O)c2ccccc2)c2ccccc12)NC12CC3CC(CC(C3)C1)C2 | > 250 µM

Each compound below has a recorded value; state its CC50 at 72 h.
1. Cc1ccc(NC(=O)Cn2cc(Cn3cc(CCCC(=O)NC45CC6CC(CC(C6)C4)C5)c4ccccc43)nn2)cc1C
2. CC(C)(C)c1ccc(S(=O)(=O)n2cc(CCCC(=O)NC3CCCCCC3)c3ccccc32)cc1

> 250 µM
> 250 µM

Each compound below has a recorded value; state its CC50 at 72 h.
1. O=C(CCCc1cn(S(=O)(=O)c2ccc(F)cc2)c2ccccc12)NC12CC3CC(CC(C3)C1)C2
2. CCCCCCCn1cc(CCCC(=O)NC23CC4CC(CC(C4)C2)C3)c2ccccc21

> 250 µM
> 250 µM
